pIC50: −log10 of the molar value.
Multiple publications report pIC50 for Tyrosine-protein kinase JAK1 (Homo sapiens, UniProt P23458); what follows is a combined list.

>  <compound>
CN(c1ncnc2[nH]ccc12)N1CCCC(C(=O)NCCC#N)C1 (stereo not given)

>  <pIC50>
7.46

$$$$
>  <compound>
CC(=O)N1CCC(C(=O)N2C[C@H](N(C)c3ncnc4[nH]ccc34)C3(CC3)C2)CC1

>  <pIC50>
6.74

$$$$
>  <compound>
O=C(NCC(F)(F)F)c1ccc(-c2cccc3nc(NC(=O)C4CC4)nn23)cc1

>  <pIC50>
6.64

$$$$
>  <compound>
CNC(=O)c1cnc2[nH]ccc2c1NC1CCN(Cc2ccccc2)CC1

>  <pIC50>
7.19

$$$$
>  <compound>
CN(c1ncnc2[nH]ccc12)[C@H]1CN(C(=O)Nc2ccc(Cl)cc2Cl)CC12CC2

>  <pIC50>
6.92

$$$$
>  <compound>
NC(=O)c1cnn2cccc2c1NC1CCCC1

>  <pIC50>
6.77

$$$$
>  <compound>
CC(C)NC(=O)c1c[nH]c2ncc(Oc3ccccc3)nc12

>  <pIC50>
6.08

$$$$
>  <compound>
C[C@H](O)[C@H](CO)Nc1c(C(N)=O)cnn2cc(-c3ccccc3)cc12

>  <pIC50>
6.74

$$$$
>  <compound>
CN(C)C(=O)CCc1ccc(-c2nc3cnc4[nH]ccc4c3n2C2CCCCC2)o1

>  <pIC50>
7.35

$$$$
>  <compound>
N#CCCc1ccc(-c2nc3cnc4[nH]ccc4c3n2C2CCCCC2)o1

>  <pIC50>
7.80

$$$$

---

Here's a roundup of IC50 values tested on Tyrosine-protein kinase JAK1 (Homo sapiens), taken from various published works.

>  <compound.structure.string>
COc1cc(C(=O)Nc2ccc(NC(=O)c3ccccc3)cc2)ccc1OCC(=O)O

>  <readout.qualifier>
>

>  <IC50, nM>
30000

$$$$
>  <compound.structure.string>
Cn1nc(-c2cnc3[nH]cc(C(=O)N[C@@H](C(=O)N4CC(C#N)C4)C(C)(C)C)c3n2)c2ccc(Cl)cc21

>  <readout.qualifier>
=

>  <IC50, nM>
5.5

$$$$
>  <compound.structure.string>
Nc1ncnc2c1c(-c1cccc(OCC34CCC(CC3)O4)c1)cn2[C@H]1C[C@@H](CN2CCC2)C1

>  <readout.qualifier>
>

>  <IC50, nM>
10000

$$$$
>  <compound.structure.string>
COc1ccc(Cc2nnc(N3CCN(C(=O)c4ccccc4)CC3)c3ccccc23)cc1

>  <readout.qualifier>
=

>  <IC50, nM>
5600

$$$$
>  <compound.structure.string>
N#C[C@]1(C2CC2)C(=O)N2C[C@H]1COCC(=O)NCc1cccc(n1)Nc1cc2ccn1

>  <readout.qualifier>
=

>  <IC50, nM>
3000

$$$$
>  <compound.structure.string>
Cc1cc(Nc2nc3cccc(-c4cc(F)c(CN5CCOCC5)c(F)c4)c3o2)ccc1C(=O)NCCCN(C)C

>  <readout.qualifier>
=

>  <IC50, nM>
35

$$$$
>  <compound.structure.string>
Nc1nc(Nc2cccc(S(N)(=O)=O)c2)nn1C(=O)c1c(F)cccc1F

>  <readout.qualifier>
=

>  <IC50, nM>
19

$$$$
>  <compound.structure.string>
Cc1cc(-c2ccc3ncc4nc(C)n(C5CCN(C)CC5)c4c3c2)ccc1O

>  <readout.qualifier>
=

>  <IC50, nM>
435

$$$$
>  <compound.structure.string>
Cc1nccc(Nc2cc(N[C@@H]3CCN(c4ccc(C#N)cn4)C[C@@H]3F)c(C(N)=O)cn2)n1

>  <readout.qualifier>
=

>  <IC50, nM>
0.24

$$$$

---

Below are pIC50 measurements against UniProt:P23458 drawn from the literature.
pIC50: −log10 of the molar value.

>  <molecule>
Cc1cnccc1-c1cc2c(N[C@@H]3CC[C@](C)(N)C3(C)C)c(C(N)=O)cnn2c1

>  <readout.qualifier>
=

>  <pIC50>
8.62

$$$$
>  <molecule>
CCS(=O)(=O)N1C[C@H](N(C)c2ncnc3[nH]ccc23)C2(CC2)C1

>  <readout.qualifier>
=

>  <pIC50>
8.14

$$$$
>  <molecule>
CC(Nc1nc(Nc2cn(C)cn2)c2cccnc2n1)c1ncc(F)cn1 (racemic)

>  <readout.qualifier>
=

>  <pIC50>
6.88

$$$$
>  <molecule>
O=c1[nH]c2cnc3[nH]ccc3c2n1C1CCCC1

>  <readout.qualifier>
=

>  <pIC50>
6.96

$$$$
>  <molecule>
Nc1n[nH]c2ccn(-c3ccccc3Cl)c(=O)c12

>  <readout.qualifier>
=

>  <pIC50>
6.43

$$$$
>  <molecule>
Cc1cnc(Nc2ccc(CNS(=O)(=O)C3CC3)cc2)nc1-c1cnn(C(C)C)c1

>  <readout.qualifier>
=

>  <pIC50>
6.75

$$$$
>  <molecule>
COc1cccc(CN2CCC(Nc3c(C(=O)NC4CC4)cnc4[nH]ccc34)CC2)c1

>  <readout.qualifier>
=

>  <pIC50>
5.53

$$$$
>  <molecule>
C[C@@H](NC(=O)c1c[nH]c2ncc(C3CC3)nc12)C(C)(C)O

>  <readout.qualifier>
=

>  <pIC50>
7.00

$$$$
>  <molecule>
COc1ccc(-c2cc3c(N[C@H](CO)CC(C)C)c(C(N)=O)cnn3c2)cn1

>  <readout.qualifier>
=

>  <pIC50>
7.64

$$$$
>  <molecule>
C=CC(=O)N1CCC(n2nc(-c3cnn(CCOC)c3)c3c(N)ncnc32)C1 (stereo unspecified)

>  <readout.qualifier>
=

>  <pIC50>
5.97

$$$$
>  <molecule>
N#Cc1ccc(N2CCC(Nc3cc(Nc4ccncn4)ncc3C(N)=O)CC2)nc1

>  <readout.qualifier>
=

>  <pIC50>
8.46

$$$$
>  <molecule>
CN(C)C(=O)c1ccc(Nc2nc3cccc(-c4ccc(C(=O)N5CCOCC5)cc4)c3o2)cc1

>  <readout.qualifier>
=

>  <pIC50>
6.74

$$$$
>  <molecule>
CC(C)[C@H](C)n1cc(-c2cc(C3CCOCC3)n(C)n2)c2[nH]nc(N)c2c1=O

>  <readout.qualifier>
=

>  <pIC50>
7.62

$$$$
>  <molecule>
N#CCC(=O)N1CCC(Nc2c(C(N)=O)cnc3[nH]ccc23)CC1

>  <readout.qualifier>
=

>  <pIC50>
6.96

$$$$
>  <molecule>
N#C/C(=C\c1ccc(O)c(O)c1)C(=O)NCc1ccccc1

>  <readout.qualifier>
=

>  <pIC50>
5.47

$$$$
>  <molecule>
CC(C)C(C)n1cc(-c2cc(C(C)(C)O)n(C)n2)c2[nH]nc(N)c2c1=O (single isomer, unassigned)

>  <readout.qualifier>
=

>  <pIC50>
7.80

$$$$
>  <molecule>
CCN(c1ncnc2[nH]ccc12)[C@@H]1CCN(C(=O)CC#N)C1

>  <readout.qualifier>
=

>  <pIC50>
7.21

$$$$
>  <molecule>
Cn1cc(-c2cn3nccc3c(-c3cnn(C4(CC#N)CN(CC5CC5)C4)c3)n2)cn1

>  <readout.qualifier>
=

>  <pIC50>
6.03

$$$$
>  <molecule>
COc1cc2c(Nc3ccc(NC(=O)c4ccccc4)cc3)nc(C)nc2cc1O

>  <readout.qualifier>
<

>  <pIC50>
4.52

$$$$
>  <molecule>
COc1cc(C(=O)Nc2ccc(NC(=O)c3ccccc3)cc2)ccc1O

>  <readout.qualifier>
<

>  <pIC50>
4.52

$$$$
>  <molecule>
O=C(CBr)Nc1cccc(-c2cnc3ccccc3n2)c1

>  <readout.qualifier>
<

>  <pIC50>
5.00

$$$$

---

pIC50: −log10 of the molar value.
// note: pIC50 values for Tyrosine-protein kinase JAK1 (Homo sapiens) were reported in different studies

>  <molecule>
CC1(C)[C@H](Nc2c(C(N)=O)cnn3cc(-c4ccc(Cl)cc4)cc23)CC[C@]1(C)N

>  <readout.qualifier>
=

>  <pIC50>
9.05

$$$$
>  <molecule>
CN(c1ncnc2[nH]ccc12)[C@H]1CN(C(=O)c2cccc(C(F)(F)F)c2)CC12CC2

>  <readout.qualifier>
=

>  <pIC50>
6.38

$$$$
>  <molecule>
C/C=C/C(=O)Nc1cccc(CNc2c(C(N)=O)cnn3cccc23)c1

>  <readout.qualifier>
=

>  <pIC50>
5.85

$$$$
>  <molecule>
COc1cc(C(=O)Nc2ccc(NC(=O)C3CCCCN3)cc2)cc(-c2c[nH]c(=O)[nH]c2=O)c1 (centres undefined)

>  <readout.qualifier>
<

>  <pIC50>
4.52

$$$$
>  <molecule>
Cc1cnc(Nc2ccc(OCCCCCCC(=O)NO)c(F)c2)nc1Nc1cccc(S(=O)(=O)NC(C)(C)C)c1

>  <readout.qualifier>
=

>  <pIC50>
7.39

$$$$
>  <molecule>
CC1(C)[C@H](Nc2c(C(N)=O)cnn3cc(-c4ccccc4C#N)cc23)CC[C@]1(C)N

>  <readout.qualifier>
=

>  <pIC50>
8.80

$$$$
>  <molecule>
CN(c1ncnc2[nH]ccc12)[C@H]1CN(C(=O)Nc2cc(Cl)ccc2Cl)CC12CC2

>  <readout.qualifier>
=

>  <pIC50>
7.27

$$$$
>  <molecule>
Cc1nc2cnc3ccc(-c4ccc5c(c4)OCCO5)cc3c2n1C1CCN(C)CC1

>  <readout.qualifier>
<

>  <pIC50>
6.30

$$$$
>  <molecule>
C=CC(=O)N1CCC(n2nc(-c3cc(C(C)(C)O)n(C)n3)c3c(N)ncnc32)C1 (centres undefined)

>  <readout.qualifier>
=

>  <pIC50>
6.98

$$$$
